target.entity: T1, 4H406-AA
T1 chain: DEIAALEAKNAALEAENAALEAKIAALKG
experiment.description: two-hybrid library CCmax;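 further: natural log of median RNA to DNA barcode read ratio; higher means stronger binding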
test.conditions: mean of both orientations
Respond with label 1 for interaction score values of -1 and above, label 0 for values below.

>>> group_label("DEIAALEAKIAALKAKNAALEAKNAALKG [4H376-AA]")
"label 1"
>>> group_label("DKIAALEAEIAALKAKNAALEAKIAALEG [4H2165-AA]")
"label 0"
>>> group_label("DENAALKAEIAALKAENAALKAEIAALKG [4H1626-AA]")
"label 0"
>>> group_label("DKIAALEAEIAALKAEIAALKAENAALKG [4H2124-AA]")
"label 0"
>>> group_label("DKNAALEAKNAALEAKIAALEAKIAALEG [4H3493-AA]")
"label 0"
>>> group_label("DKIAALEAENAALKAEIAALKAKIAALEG [4H2253-AA]")
"label 0"
